- Tested on: mitotoxicity
- Assay Summary: Mitotox safety margin (therapeutic window)
- Type: cell-based
- Stated Conditions: class of the Ratio
Measurement Kind: Mitotox safety margin (Therapeutic window)

Compound: O[C@@H]1Cc2ccccc2[C@H]1Nc1ncnc2[nH]c(C(F)(F)F)cc12 [Compound 88]
System Under Test: mitotoxicity
Observed Result: + (ratio <10)
//
Compound: C[C@H]1CCc2ccccc2[C@H]1Nc1ncnc2[nH]c(C(F)(F)F)cc12 [Compound 85]
System Under Test: mitotoxicity
Observed Result: + (ratio <10)
//
Compound: OC[C@@H]1CCc2ccccc2[C@H]1Nc1ncnc2[nH]c(C(F)(F)F)cc12 [Compound 94]
System Under Test: mitotoxicity
Observed Result: + (ratio <10)
//
Compound: N#Cc1cccc2c1CCCC2Nc1ncnc2[nH]c(C(F)(F)F)cc12 (stereo not shown) [Compound 92]
System Under Test: mitotoxicity
Observed Result: + (ratio <10)
//
Compound: FC(F)(F)c1cc2c(NC3CCCc4ccccc43)ncnc2[nH]1 (stereo not shown) [Compound 15]
System Under Test: mitotoxicity
Observed Result: ++++ (ratio 30<)
//
Compound: FC(F)(F)c1cc2c(N[C@@H]3CCOc4ccccc43)ncnc2[nH]1 [Compound 37]
System Under Test: mitotoxicity
Observed Result: + (ratio <10)
//
Compound: c1ccc2c(c1)CCC[C@H]2Nc1ncnc2[nH]c(C3CC3)cc12 [Compound 107]
System Under Test: mitotoxicity
Observed Result: ++++ (ratio 30<)
//
Compound: O[C@H]1Cc2ccccc2[C@@H]1Nc1ncnc2[nH]c(C(F)(F)F)cc12 [Compound 90]
System Under Test: mitotoxicity
Observed Result: + (ratio <10)
//
Compound: CN1CC[C@H](Nc2ncnc3[nH]c(C(F)(F)F)cc23)c2ccccc21 [Compound 81]
System Under Test: mitotoxicity
Observed Result: ++++ (ratio 30<)

----------
- Assay Summary: Tissue distribution, mouse
- Assay type: in vivo
- Stated Conditions: brain, dose 50 mg/kg, read-out: Brain 1 h

Compound: FC(F)(F)c1cc2c(NC3CCCc4ccccc43)ncnc2[nH]1 (stereo not shown)
Unit Symbol: ng/g
concentration at 1 h: 6370

----------
- Assay Summary: In vivo pharmacokinetic properties (Table 7)
- Stated Conditions: PO (50 mg/kg)
Measurement Kind: Cmax (µM)

Compound: FC(F)(F)c1cc2c(NC3CCCc4ccccc43)ncnc2[nH]1 (stereo not shown) [Compound 15]
Measurement Kind: Cmax
Unit Symbol: µM
Observed Result: 9.8

----------
- System: HeLa MKYP cells
- Assay Summary: Human mitophagy assay (HeLa MKYP, mtKeima FACS, FCCP/oligomycin)
- Assay type: cell-based
- Stated Conditions: Homo sapiens, HeLa, Table 3 Supplement B; read-out: Mitophagy EC50 (HeLa mKeima assay)
Measurement Kind: EC50 (µM)

Compound: CO[C@H]1COc2ccccc2[C@H]1Nc1ncnc2[nH]c(C(F)(F)F)cc12 [Compound 99]
Observed Result: 13.3
//
Compound: Oc1ccc2c(c1)CCC[C@H]2Nc1ncnc2[nH]c(C(F)(F)F)cc12 [Compound 110]
Observed Result: 4.38
//
Compound: CN1CC[C@H](Nc2ncnc3[nH]c(C(F)(F)F)cc23)c2ccccc21 [Compound 81]
Observed Result: 1.33
//
Compound: OC[C@H]1CCc2ccccc2[C@@H]1Nc1ncnc2[nH]c(C(F)(F)F)cc12 [Compound 95]
Observed Result: 5.55
//
Compound: C[C@H]1CCc2ccccc2[C@@H]1Nc1ncnc2[nH]c(C(F)(F)F)cc12 [Compound 82]
Observed Result: 1.02
